Method Notes: chemical genetic growth profiling, strain panel (AID 1159580);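 note: tested at 20 µM; growth read once vehicle control cultures reached saturation at 30 °C; 1 = growth at the plate median or of vehicle wells; lower values mean less growth of the strain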
Measurement Conditions: S. cerevisiae deletion strains, growth OD, locus YJR075W, strain HOC1, hits give low values
Hit rate of the full screen: of about 5,500 compounds, about 2,000 (36%) were called active. Inconclusive results (about 18%) are left out. The list shows a part of the results.
Value Type: normalized growth
I only need the number, thanks.

{"Compound": "COC(=O)CCC(=O)O[C@H]1CCC2(C)C(CCC3C2C(=O)[C@@H](O)C2(C)C3CC3OC4(CCC(C)CO4)[C@@H](C)C32)C1 (stereo partly drawn)", "normalized growth": 1.02}
{"Compound": "CN1CCN(C2=Nc3ccccc3Oc3ccc(Cl)cc32)CC1", "normalized growth": 0.996}
{"Compound": "COc1ccc2c(c1)CCCN2C(=O)NC(=O)c1c(F)cccc1Cl", "normalized growth": 0.997}
{"Compound": "Cc1nc2sccn2c(=O)c1CCN1CCC(=C(c2ccccc2)c2ccc(F)cc2)CC1", "normalized growth": 1.01}
{"Compound": "CC(CN1c2ccccc2Sc2cccnc21)N(C)C (stereo not drawn)", "normalized growth": 1.02}
{"Compound": "CNC(=O)[C@H]1O[C@@H](n2cnc3c(NCc4ccc(I)cc4)nc(Cl)nc32)[C@H](O)[C@@H]1O", "normalized growth": 0.999}
{"Compound": "CCCCCC1C(=O)CCC1CC(=O)OC (stereo not drawn)", "normalized growth": 1.01}

Prompt: Recorded normalized growth for Cc1nn(Cc2n[nH]c(=S)o2)c(C)c1Br , please?
Completion: 0.979
